# Target Under Test: recombinant human SAE enzyme (Homo sapiens (Human), UniProt Q9UBT2)
# Sequence (Q9UBT2 whole entry): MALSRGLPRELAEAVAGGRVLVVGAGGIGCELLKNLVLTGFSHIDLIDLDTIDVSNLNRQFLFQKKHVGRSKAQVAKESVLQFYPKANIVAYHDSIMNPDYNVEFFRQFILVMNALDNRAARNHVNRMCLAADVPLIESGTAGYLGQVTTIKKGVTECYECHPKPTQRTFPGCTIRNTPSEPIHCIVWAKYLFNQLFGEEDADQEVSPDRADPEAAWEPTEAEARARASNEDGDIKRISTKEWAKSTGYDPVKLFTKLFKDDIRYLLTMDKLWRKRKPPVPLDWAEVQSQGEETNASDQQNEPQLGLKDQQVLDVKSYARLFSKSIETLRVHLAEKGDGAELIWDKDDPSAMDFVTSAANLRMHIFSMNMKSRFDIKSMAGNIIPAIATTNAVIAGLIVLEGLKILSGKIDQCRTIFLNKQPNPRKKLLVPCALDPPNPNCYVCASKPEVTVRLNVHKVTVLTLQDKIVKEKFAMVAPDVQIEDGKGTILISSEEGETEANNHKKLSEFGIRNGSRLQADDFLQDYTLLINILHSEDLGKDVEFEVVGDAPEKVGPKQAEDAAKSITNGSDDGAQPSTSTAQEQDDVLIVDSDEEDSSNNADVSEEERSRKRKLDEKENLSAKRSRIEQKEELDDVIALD
# Sequence (Q9UBE0 whole entry partner): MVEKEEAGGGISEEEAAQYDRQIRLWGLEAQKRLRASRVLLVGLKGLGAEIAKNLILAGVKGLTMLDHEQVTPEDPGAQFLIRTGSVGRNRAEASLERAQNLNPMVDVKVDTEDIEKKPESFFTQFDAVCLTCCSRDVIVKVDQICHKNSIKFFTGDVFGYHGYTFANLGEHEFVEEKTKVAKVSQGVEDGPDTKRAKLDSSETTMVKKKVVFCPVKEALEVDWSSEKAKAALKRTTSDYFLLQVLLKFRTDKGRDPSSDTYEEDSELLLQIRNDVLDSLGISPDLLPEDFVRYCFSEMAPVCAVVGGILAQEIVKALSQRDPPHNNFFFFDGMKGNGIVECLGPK
# Procedure Details: SAE HTRF enzyme assay
# Type: biochemical
# Assay Setup: Concentration 0.111 μM
Measured Endpoint: Percent Inhibition
The response must contain the number and no unit.

Compound	Test Result
NS(=O)(=O)OC[C@H]1C[C@@H](Nc2ncncc2C(=O)c2cc([C@@H]3NCCc4ccc(Br)cc43)c(Cl)s2)C[C@@H]1O (single isomer, unassigned) [I-251b]	97
CO[C@H](c1cccc(Cl)c1)c1cc(C(=O)c2cncnc2N[C@@H]2C[C@H](COS(N)(=O)=O)[C@@H](O)C2)sc1Cl (single isomer, unassigned) [I-90b]	92
NS(=O)(=O)OC[C@H]1C[C@@H](Nc2ncncc2C(=O)c2cc([S@+]([O-])c3cccc(C(F)(F)F)c3)c(Cl)s2)C[C@@H]1O (mixture of isomers) [I-122]	98
NS(=O)(=O)OC[C@H]1C[C@@H](Nc2ncncc2C(=O)c2cc([C@H](O)c3cccc(Cl)c3)c(Cl)s2)C[C@@H]1O (single isomer, unassigned) [I-9a]	99

// next item, Percent Inhibition requested
Exercise: # Percent Inhibition lookup, item NS(=O)(=O)OCC1CC(Nc2ncncc2C(=O)c2cc(C3OCCc4ccc(Cl)nc43)c(Cl)s2)CC1O (mixture of isomers) [I-276]
Key: 98

src = patent US10780090B2
